Property: pKd; scope: individual binders
# target.system: T1, EsCas13d, nuclease-dead (Eubacterium siraeum, UniProt B0MS50, R295A;H300A;R849A;H854A)
# T1 sequence: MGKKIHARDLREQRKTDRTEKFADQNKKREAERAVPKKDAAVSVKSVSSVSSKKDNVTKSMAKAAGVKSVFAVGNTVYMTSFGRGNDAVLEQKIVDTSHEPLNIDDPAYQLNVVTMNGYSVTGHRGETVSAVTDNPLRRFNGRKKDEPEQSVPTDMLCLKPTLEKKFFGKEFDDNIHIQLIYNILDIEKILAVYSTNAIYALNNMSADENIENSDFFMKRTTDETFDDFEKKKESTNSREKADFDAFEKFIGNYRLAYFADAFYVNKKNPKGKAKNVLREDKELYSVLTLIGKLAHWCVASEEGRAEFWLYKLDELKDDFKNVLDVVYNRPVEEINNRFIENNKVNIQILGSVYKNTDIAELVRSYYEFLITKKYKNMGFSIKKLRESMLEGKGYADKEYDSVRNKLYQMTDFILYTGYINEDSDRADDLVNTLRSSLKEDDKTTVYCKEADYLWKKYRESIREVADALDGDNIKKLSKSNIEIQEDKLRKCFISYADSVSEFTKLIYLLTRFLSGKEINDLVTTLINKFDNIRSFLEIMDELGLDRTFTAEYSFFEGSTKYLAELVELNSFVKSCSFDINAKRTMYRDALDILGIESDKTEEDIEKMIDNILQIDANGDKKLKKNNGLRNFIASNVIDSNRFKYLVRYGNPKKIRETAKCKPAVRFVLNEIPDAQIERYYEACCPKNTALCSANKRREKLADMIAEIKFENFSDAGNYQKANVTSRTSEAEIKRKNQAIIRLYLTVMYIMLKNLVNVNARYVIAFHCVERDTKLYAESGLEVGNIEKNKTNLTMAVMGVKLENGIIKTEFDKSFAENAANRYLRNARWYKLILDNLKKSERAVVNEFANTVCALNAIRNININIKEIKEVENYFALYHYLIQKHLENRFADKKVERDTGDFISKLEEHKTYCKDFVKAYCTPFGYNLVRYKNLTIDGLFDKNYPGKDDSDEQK
# assay.explanation: crRNA (strand 1, pre-loaded); Mg2+; 40 mM Tris-HCl pH 7.5, 150 mM NaCl, 6 mM MgCl2, 1 mM DTT, 0.1% Tween-20, 0.2 mg/ml BSA; 25 C; 10 min per concentration, then washed
# condition.set: tags: His6-TwinStrep-SUMO cleaved; N-terminal SNAP kept (SNAP-Surface 488); label: 3' end held by stalled T7 RNA polymerase
Please note pKd is a logarithmic value: minus log10 of concentration in mol/L. Answer with that number alone.

# input binder: target 2 MT 5'PFS UCA 3'PFS CAA (mixed) RNA 1: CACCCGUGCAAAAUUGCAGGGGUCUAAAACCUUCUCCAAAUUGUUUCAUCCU RNA 2: GGGAAUGGAUCCACAUCUACGAAUUCUCAAGGAUGAAACAAUUUGGAGAAGCAAAGAUCGGAAGAGCACACGU ; wanted: its pKd 8.28

# context switch: different binder, same pKd
# input binder: target 2 MT 5'PFS AGG 3'PFS AUU (mixed) RNA 1: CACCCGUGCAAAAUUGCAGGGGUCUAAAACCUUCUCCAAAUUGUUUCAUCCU RNA 2: GGGAAUGGAUCCACAUCUACGAAUUCAGGAGGAUGAAACAAUUUGGAGAAGAUUAGAUCGGAAGAGCACACGU ; wanted: its pKd 8.32
